tested-target: T1, ASH1L PHD finger Y2693K (human, UniProt Q9NR48 2579-2629)
T1 chain: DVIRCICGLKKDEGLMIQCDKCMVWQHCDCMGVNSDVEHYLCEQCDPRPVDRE
Ends that are not written are not given here. Me3 = trimethyl on lysine side chain
experimental-readout: pKd
Note on units: pKd is unitless, being -log10 of a concentration expressed in mol/L.

Memo: ARTK(Me3)QTARKSTG [histone H3K4me3 peptide (aa 1-12 of H3)] , reported pKd: 5.74
